System under test: WT tEGFR (human EGFR aa 25–1022) (Homo sapiens, UniProt P00533)
Method description: Radiometric kinase inhibition assay, WT tEGFR
Assay type: biochemical
Protocol conditions: EGF–bound WT tEGFR; phosphorylation of biotinylated substrate peptide
pIC50: −log10 of the molar value.

{"Substance": "Segment 1 of MIG6: MIG6 segment 1 (30mer, residues 334–364) peptide made by solid-phase peptide synthesis (SPKSLPSYLNGVMPPTQSFAPDPKYVSSKAL)", "pIC50": 4.00}

* * *

System under test: WT tEGFR (human EGFR aa 25–1022) (Homo sapiens)
pKi: −log10 of the molar value.

{"Smiles data": "Nc1ncnc2c1ncn2[C@@H]1O[C@H](COP(=O)(O)OP(=O)(O)NP(=O)(O)O)[C@@H](O)[C@H]1O", "System under test": "WT tEGFR (human EGFR aa 25–1022) (Homo sapiens)", "pKi": 4.68}
